Attribution: ChEMBL document CHEMBL4513216

Test: Toxicity liver stage against HepG2, at 10uM
Assay type: cell-based
Set-up: test concentration 10 uM, cell line HepG2-A16-CD81EGFP
Settings: human, HepG2-A16-CD81EGFP cells; read-out: INHIBITION
Listed here: items and their measured cytotoxicity at 10 µM.
Remember to follow the number with its unit.

// worked examples, cytotoxicity at 10 µM included
- compound: "OCC1(Cc2ccccc2F)CCCN(c2ccc3ccccc3n2)C1 (centres undefined)"
  test_readout: "cytotoxicity at 10 µM"
  observed_measurement: "22.7%"
- compound: "COC(=O)CN(Cc1ccccc1C)C(=O)COCC1CC1"
  test_readout: "cytotoxicity at 10 µM"
  observed_measurement: "6.87%"
- compound: "COCCN1CCC(c2nc3c([nH]2)CCCNC3=O)CC1"
  test_readout: "cytotoxicity at 10 µM"
  observed_measurement: "0.583%"
- compound: "O=C(Nc1cccc2c1CCCC2)C1CCCN1c1nccs1 (centres undefined)"
  test_readout: "cytotoxicity at 10 µM"
  observed_measurement: "-4.15%"
- compound: "Cc1cc(CN2CCCC(Cn3cncn3)C2)no1 (centres undefined)"
  test_readout: "cytotoxicity at 10 µM"
  observed_measurement: "-2.12%"

Prompt: Please report cytotoxicity at 10 µM for the following compound: N#Cc1ccc(C2CC(=O)Nc3c2cnn3C2CCCC2)cc1 (centres undefined)
Response: 13.2%

Prompt: Please report cytotoxicity at 10 µM for the following compound: CNC(=O)CN1CCC(c2cc(OC)cc(OC)c2)C1 (centres undefined)
Response: 4.38%

Prompt: Please report cytotoxicity at 10 µM for the following compound: OC1CCN(C2CCN(Cc3cnc(-c4cccs4)nc3)CC2)CC1
Response: -9.77%

Prompt: Please report cytotoxicity at 10 µM for the following compound: COCCN1CCCC1c1nccnc1Nc1nc(C)cs1 (centres undefined)
Response: 6.02%

Prompt: Please report cytotoxicity at 10 µM for the following compound: O=C(CCN1CCCCC1c1cc2ccccc2[nH]1)N1CCOCC1 (centres undefined)
Response: 7.82%
